# target-desc: T1, Human CD100 (human, UniProt Q92854 22-734, limits assumed)
# T1 construct: also called SEMA4D; Hu CD100
# T1 sequence (looked up): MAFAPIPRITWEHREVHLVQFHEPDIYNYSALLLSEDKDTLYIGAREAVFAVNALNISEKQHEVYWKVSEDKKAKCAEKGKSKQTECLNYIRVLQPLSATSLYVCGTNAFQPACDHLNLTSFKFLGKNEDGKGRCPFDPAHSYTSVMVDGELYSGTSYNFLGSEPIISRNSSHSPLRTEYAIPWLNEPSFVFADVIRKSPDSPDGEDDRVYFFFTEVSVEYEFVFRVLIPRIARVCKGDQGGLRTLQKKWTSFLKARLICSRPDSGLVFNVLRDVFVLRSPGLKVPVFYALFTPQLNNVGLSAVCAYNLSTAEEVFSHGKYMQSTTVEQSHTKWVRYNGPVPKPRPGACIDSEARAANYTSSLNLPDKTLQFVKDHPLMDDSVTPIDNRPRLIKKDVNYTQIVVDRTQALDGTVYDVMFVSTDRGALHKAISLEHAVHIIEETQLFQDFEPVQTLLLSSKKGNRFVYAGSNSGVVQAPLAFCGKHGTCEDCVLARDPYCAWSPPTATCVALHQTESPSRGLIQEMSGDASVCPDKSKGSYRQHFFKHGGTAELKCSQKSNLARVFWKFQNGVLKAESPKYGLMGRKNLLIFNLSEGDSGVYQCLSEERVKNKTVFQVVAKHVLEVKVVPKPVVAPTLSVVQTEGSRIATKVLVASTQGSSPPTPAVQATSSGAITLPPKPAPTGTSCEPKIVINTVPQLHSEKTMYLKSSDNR
# procedure-details: ELISA method of Friguet et al.; column head 'Affinity (nM) IC50 ELISA'; antigen not named
Reported Kd is given for each of the following binders.
Respond with the bare value in nM.

Some entries whose results are on file:
{"columns": ["binder", "test-value"],
 "data": [
  ["MAb 657 (antibody, human IgG1, V domains shown, Humanized BD16, human IgG1; also called H1235/L284) VH: QVQLVQSGAEVKKPGSSVKVSCKASGYTFTDYYMDWVRQAPGQGLEWIGRVNPYHGGATYNQKFKGKATITVDKSTSTAYMELSSLRSEDTAVYYCAREENSYDGYYGMDYWGQGTLVTVSS VL: DIVMTQSPLSLPVSPGEPATINCKSSQSLFNSGNQKNYLAWYLQKPGQPPKLLIYGASTRESGVPDRFSGSGSGTDFTLTISSLQAEDVAVYYCQNDHTYPYTFGQGTKLEIK", 0.12],
  ["MAb 1808 (antibody, human IgG4, V domains shown, Humanized BD16, fully human frameworks, human IgG4; also called H1651/L284) VH: QVQLVQSGAEVKKPGSSVKVSCKASGYTFTDYYMDWVRQAPGQGLEWMGRVNPYHGGATYNQKFKGRVTITADKSTSTAYMELSSLRSEDTAVYYCAREENSYDGYYGMDYWGQGTLVTVSS VL: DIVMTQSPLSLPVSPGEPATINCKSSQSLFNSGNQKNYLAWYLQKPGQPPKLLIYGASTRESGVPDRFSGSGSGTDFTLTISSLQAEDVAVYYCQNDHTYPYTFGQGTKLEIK", 0.13],
  ["MAb 1656 (antibody, human IgG1, V domains shown, Humanized BD16, fully human frameworks, human IgG1; also called H1651/L284) VH: QVQLVQSGAEVKKPGSSVKVSCKASGYTFTDYYMDWVRQAPGQGLEWMGRVNPYHGGATYNQKFKGRVTITADKSTSTAYMELSSLRSEDTAVYYCAREENSYDGYYGMDYWGQGTLVTVSS VL: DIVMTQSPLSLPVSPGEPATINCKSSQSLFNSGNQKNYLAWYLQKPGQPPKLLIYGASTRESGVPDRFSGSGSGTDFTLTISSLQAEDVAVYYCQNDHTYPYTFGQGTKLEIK", 0.12]
]}

// below: Kd requested for another binder
Ask: Returns the measured Kd for the input binder. Input: BD16 (antibody, V domains shown, Murine hybridoma anti-human CD100 antibody; also called mouse BD16; BD16 mouse MAb) VH: EVQLQQSGPELVKPGASVKMSCKASGYTFTDYYMDWVKQSHGESFEWIGRVNPYHGGATYNQKFKGKATLTVDKSSRTAYMELNSLTYEDSAVYYCAREENSYDGYYGMDYWGQGTTVTVSS VL: DIVLTQSPSSLSVSAGEKVTMDCKSSQSLFNSGNQKNYLAWYHQKPGQPPKLLIYGASTRESGVPDRFTGSGSGTDFTLTISSVQAEDLAVYYCQNDHTYPYTFGGGTKLEIK
Result: 0.13
